# Test system: volatile fatty acid concentrations in the in vitro rumen fermentation
# assay-overview: in vitro rumen fermentation, volatile fatty acids, alfalfa hay:concentrate 3:1 (Examples 3 and 12)
# Set-up: species or system sheep
# condition-context: 0.2 mg/ml; 6 h, 39° C.
measurement-type: Acetic acid

>>> reported_measurement("O=CC(Cl)(Cl)Cl [choral, reference compound]")
"88 % of control"
>>> reported_measurement("N[C@@H](Cc1ccccc1)C(=O)O [L-phenylalanine, reference compound]")
"95 % of control"
>>> reported_measurement("Br.N[C@@H](Cc1ccccc1)C(=O)OCC(Cl)(Cl)Cl")
"90 % of control"
>>> reported_measurement("N[C@@H](Cc1ccc(Cl)cc1)C(=O)O (racemic) [p-chlorophenylalanine, reference compound]")
"91 % of control"

---

Listed here: items and their measured Propionic acid.
# Tested on: volatile fatty acid concentrations in the in vitro rumen fermentation
# assay-overview: in vitro rumen fermentation, volatile fatty acids, alfalfa hay:concentrate 3:1 (Examples 3 and 12)
# Set-up: species or system sheep
# condition-context: 0.2 mg/ml; 6 h, 39° C.
measurement-type: Propionic acid

>>> reported_measurement("N[C@@H](Cc1ccc(Cl)cc1)C(=O)O (racemic) [p-chlorophenylalanine, reference compound]")
"91 % of control"
>>> reported_measurement("O=CC(Cl)(Cl)Cl [choral, reference compound]")
"110 % of control"
>>> reported_measurement("N[C@@H](Cc1ccccc1)C(=O)O [L-phenylalanine, reference compound]")
"94 % of control"
>>> reported_measurement("Br.N[C@@H](Cc1ccccc1)C(=O)OCC(Cl)(Cl)Cl")
"120 % of control"
